Listing of entries alongside the reported pIC50.
- target_system: Ribonucleotide reductase (Homo sapiens, UniProt P23921+Q7LG56)
- Sequence (P23921 whole entry, looked up): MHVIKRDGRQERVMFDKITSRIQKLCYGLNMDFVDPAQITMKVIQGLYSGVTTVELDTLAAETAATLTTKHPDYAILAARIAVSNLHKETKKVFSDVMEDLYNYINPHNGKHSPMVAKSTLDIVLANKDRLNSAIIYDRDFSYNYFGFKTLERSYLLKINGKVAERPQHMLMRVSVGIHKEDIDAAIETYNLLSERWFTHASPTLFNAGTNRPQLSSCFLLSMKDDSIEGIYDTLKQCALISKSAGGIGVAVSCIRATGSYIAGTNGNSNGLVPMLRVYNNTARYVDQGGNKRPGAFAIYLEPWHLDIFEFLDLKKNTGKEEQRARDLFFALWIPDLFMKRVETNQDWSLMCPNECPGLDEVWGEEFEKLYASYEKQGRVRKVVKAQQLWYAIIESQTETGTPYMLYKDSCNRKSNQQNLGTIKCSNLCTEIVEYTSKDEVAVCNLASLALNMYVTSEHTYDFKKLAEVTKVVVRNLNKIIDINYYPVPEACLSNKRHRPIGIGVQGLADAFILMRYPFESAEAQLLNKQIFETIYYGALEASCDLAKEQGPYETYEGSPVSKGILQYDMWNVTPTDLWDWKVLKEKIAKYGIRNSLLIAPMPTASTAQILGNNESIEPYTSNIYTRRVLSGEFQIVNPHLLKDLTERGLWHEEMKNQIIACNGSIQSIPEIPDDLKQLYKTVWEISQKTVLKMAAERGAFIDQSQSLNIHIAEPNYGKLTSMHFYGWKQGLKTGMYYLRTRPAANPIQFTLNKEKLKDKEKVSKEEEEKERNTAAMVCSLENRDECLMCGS
- Sequence (Q7LG56 whole entry, looked up): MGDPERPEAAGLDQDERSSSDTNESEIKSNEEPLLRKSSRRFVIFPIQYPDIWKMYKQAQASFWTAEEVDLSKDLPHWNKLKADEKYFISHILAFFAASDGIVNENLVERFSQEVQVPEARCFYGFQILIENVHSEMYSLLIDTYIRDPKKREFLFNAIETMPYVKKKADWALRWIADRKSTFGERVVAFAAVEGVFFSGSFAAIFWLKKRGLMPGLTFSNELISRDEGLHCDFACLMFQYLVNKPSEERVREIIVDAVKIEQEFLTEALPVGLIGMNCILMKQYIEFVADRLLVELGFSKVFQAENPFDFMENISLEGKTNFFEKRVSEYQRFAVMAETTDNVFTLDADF
- method_notes: Human RNR Inhibition Effect: The inhibitory activity against the ribonucleotide reduction reaction (hereinafter referred to as RNR reaction) of the test compound was determined by measuring the formation of deoxycytidine diphosphate (hereinafter referred to as dCDP) from cytidine diphosphate (hereinafter referred to as CDP) by the following method.Human M1 subunit and human M2 subunit (mutant …
pIC50: −log10 of the molar value.

compound | pIC50
Cc1ccc(F)c([C@@H](C)[C@H](NS(=O)(=O)c2ccc(Cl)s2)c2n[nH]c(=O)o2)c1C | 6.35
COc1c(S(=O)(=O)N[C@H](c2n[nH]c(=O)o2)[C@H](C)c2cccc(C)c2C)ccc(Cl)c1C(C)O (stereo not given in full) | 6.74
Cc1ccc(F)c([C@@H](C)[C@H](NS(=O)(=O)c2ccc(Cl)c(C(=O)N3CCC4(COC4)C3)n2)c2n[nH]c(=O)o2)c1C | 6.89
Cc1ccc(F)c([C@@H](C)[C@H](NS(=O)(=O)c2ccc(Cl)c3c2OCC(=O)N3CC(F)F)c2n[nH]c(=O)o2)c1C | 6.89
CC(=O)OC1(C(F)(F)F)CCOc2c(S(=O)(=O)N[C@H](c3n[nH]c(=O)o3)[C@H](C)c3c(F)ccc(C)c3C)ccc(Cl)c21 (stereo not given in full) | 6.96
Cc1ccc(F)c([C@@H](C)[C@H](NS(=O)(=O)c2ccc(Cl)c3c2OCCC3=O)c2n[nH]c(=O)o2)c1C | 6.82
Cc1ccc(F)c([C@@H](C)[C@H](NS(=O)(=O)c2c(F)cc(Cl)cc2F)c2n[nH]c(=O)o2)c1C | 6.57
COc1cc(Cl)ccc1S(=O)(=O)N[C@H](c1n[nH]c(=O)o1)C(C)c1c(F)c(F)cc(C)c1Br (stereo not given in full) | 6.38
Cc1ccc(F)c([C@@H](C)[C@H](NS(=O)(=O)c2c(F)cc(Cl)cc2C(N)=O)c2n[nH]c(=O)o2)c1C | 6.85
COc1cc(Cl)ccc1S(=O)(=O)N[C@H](c1n[nH]c(=O)o1)[C@H](C)c1c(F)ccc(-c2cnn(C3CC3)c2)c1C | 6.66
Cc1ccc(F)c([C@@H](C)[C@H](NS(=O)(=O)c2ccc(Cl)cc2C(=O)N2CCC2)c2n[nH]c(=O)o2)c1C | 6.39
Cc1ccc(F)c([C@@H](C)[C@H](NS(=O)(=O)c2cnc(Cl)cc2C(N)=O)c2n[nH]c(=O)o2)c1C | 6.89
Cc1ccc(F)c([C@@H](C)[C@H](NS(=O)(=O)c2ccc(Cl)c3cccnc23)c2n[nH]c(=O)o2)c1C | 6.96
COc1cc(S(=O)(=O)N[C@H](c2n[nH]c(=O)o2)[C@H](C)c2c(F)ccc(C)c2C)c(C(N)=O)cc1Cl | 7.00
Cc1ccc(F)c([C@@H](C)[C@H](NS(=O)(=O)c2ccc(C#N)cc2)c2n[nH]c(=O)o2)c1C | 6.39
CCn1cc(-c2ccc(F)c([C@@H](C)[C@H](NS(=O)(=O)c3ccc(Cl)cc3OC)c3n[nH]c(=O)o3)c2C)cn1 | 6.77
Cc1ccc(F)c([C@@H](C)[C@H](NS(=O)(=O)c2ccc(Cl)nc2C(N)=O)c2n[nH]c(=O)o2)c1C | 6.72
Cc1cccc([C@@H](C)[C@H](NS(=O)(=O)c2ccc(Cl)c3c2OCC=C3)c2n[nH]c(=O)o2)c1C | 6.10
COc1cc(Cl)ccc1S(=O)(=O)N[C@H](c1n[nH]c(=O)o1)[C@H](C)c1c(F)ccc2ccccc12 | 6.70
COc1cc(Cl)ccc1S(=O)(=O)N[C@H](c1n[nH]c(=O)o1)[C@H](C)c1c(C)c(C)cc(F)c1F | 6.80
C[C@H](c1cccc2c1Cc1ccccc1-2)[C@H](NS(=O)(=O)c1ccc(Br)cn1)c1n[nH]c(=O)o1 | 6.10
COC(=O)c1c(F)ccc(S(=O)(=O)N[C@H](c2n[nH]c(=O)o2)[C@H](C)c2c(F)ccc(C)c2C)c1F | 6.77
Cc1c(Cl)ccc(F)c1[C@@H](C)[C@H](NS(=O)(=O)c1ccc(Br)cc1C(N)=O)c1n[nH]c(=O)o1 | 6.82
Cc1ccc(F)c([C@@H](C)[C@H](NS(=O)(=O)c2ccc(Cl)c(C(=O)N3CCC(N)C3)n2)c2n[nH]c(=O)o2)c1C (stereo not given in full) | 6.82
COC(=O)c1cc(Cl)c(N)cc1S(=O)(=O)N[C@H](c1n[nH]c(=O)o1)[C@H](C)c1c(F)ccc(C)c1C | 6.18
Cc1c(Br)ccc(F)c1[C@@H](C)[C@H](NS(=O)(=O)c1ccc(Br)cc1C(N)=O)c1n[nH]c(=O)o1 | 6.89
Cc1ccc(F)c([C@@H](C)[C@H](NS(=O)(=O)c2cc(F)c(Cl)cc2C(N)=O)c2n[nH]c(=O)o2)c1C | 6.92
COc1cc(Cl)ccc1S(=O)(=O)N[C@H](c1n[nH]c(=O)o1)[C@H](C)c1c(F)ccc(-c2cc[nH]n2)c1C | 6.54
Cc1ccc(F)c([C@@H](C)[C@H](NS(=O)(=O)c2cccc3c2OCCO3)c2n[nH]c(=O)o2)c1C | 6.48
COc1cc(N)ccc1S(=O)(=O)N[C@H](c1n[nH]c(=O)o1)[C@H](C)c1cccc2cccc(C)c12 | 6.29

Value source: ChEMBL document CHEMBL5729675
